Where do the numbers come from? From ChEMBL document CHEMBL2218924.

# target: Tyrosine-protein kinase Fes/Fps (Homo sapiens) (UniProt P07332)
# Sequence (P07332 whole entry): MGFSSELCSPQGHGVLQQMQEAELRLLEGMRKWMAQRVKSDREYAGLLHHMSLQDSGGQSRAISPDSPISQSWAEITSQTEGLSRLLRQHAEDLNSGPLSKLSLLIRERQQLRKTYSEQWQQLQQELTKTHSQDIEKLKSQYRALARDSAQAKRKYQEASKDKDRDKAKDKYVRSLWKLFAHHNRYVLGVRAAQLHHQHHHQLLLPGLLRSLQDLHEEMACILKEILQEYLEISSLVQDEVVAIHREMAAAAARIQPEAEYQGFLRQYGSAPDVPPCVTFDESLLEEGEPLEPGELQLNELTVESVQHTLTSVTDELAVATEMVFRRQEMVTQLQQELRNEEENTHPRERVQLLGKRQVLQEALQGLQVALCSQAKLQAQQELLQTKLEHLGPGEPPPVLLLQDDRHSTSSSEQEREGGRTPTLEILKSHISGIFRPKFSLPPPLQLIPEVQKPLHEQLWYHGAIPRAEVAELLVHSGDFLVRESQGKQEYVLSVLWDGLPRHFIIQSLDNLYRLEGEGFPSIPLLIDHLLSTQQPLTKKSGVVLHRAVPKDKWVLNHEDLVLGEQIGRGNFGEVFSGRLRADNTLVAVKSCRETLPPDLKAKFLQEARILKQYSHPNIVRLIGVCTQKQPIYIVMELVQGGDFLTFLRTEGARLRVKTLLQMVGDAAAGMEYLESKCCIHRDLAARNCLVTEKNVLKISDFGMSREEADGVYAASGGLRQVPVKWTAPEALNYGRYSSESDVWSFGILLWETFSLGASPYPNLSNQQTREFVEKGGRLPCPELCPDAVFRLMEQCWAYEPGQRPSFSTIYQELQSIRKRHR
# conditions.used: at 10 µM
Rule: residual activity of 80% or more gives true (1); anything lower gives false (0).

COc1ccc(Cl)cc1NC(=O)Nc1cc(C)nc2ccccc12
true (1)
O=S(=O)(NCCNC/C=C/c1ccc(Br)cc1)c1cccc2cnccc12
false (0)
N#C/C(=C1/Nc2ccccc2S1)c1ccnc(NCCc2cccnc2)n1
false (0)
CCN(CC)CCNC(=O)c1c(C)[nH]c(/C=C2\C(=O)Nc3ccc(Cl)cc32)c1C
false (0)
O=C(Nc1nc2ccccc2n1CCN1CCOCC1)c1cccc([N+](=O)[O-])c1
false (0)
N#C/C(=C\c1ccc(O)c(O)c1)C(=O)NCc1ccccc1
false (0)
CC(C)c1nn(-c2c(Cl)cccc2Cl)c2nc(Cc3ccc(OCCO)cc3)[nH]c(=O)c12
true (1)
O=C1Cc2c([nH]c3ccc(Br)cc23)-c2ccccc2N1
false (0)
Cn1sc(=O)n(Cc2ccccc2)c1=O
true (1)
O=C1Cc2c([nH]c3ccc([N+](=O)[O-])cc23)-c2ccccc2N1
false (0)
Nc1n[nH]c2nc3ccccc3nc12
true (1)
COc1cc2nccc(Oc3ccc(NC(=O)Nc4cc(C)on4)c(Cl)c3)c2cc1OC
false (0)
O=C1C(Cl)=C(N2C(=O)CCC2=O)C(=O)c2ccccc21
true (1)
N#Cc1c(NC(=O)c2cccc3ccccc23)sc2c1CCCC2
true (1)
O=C(CCCc1ccc(-c2ccccc2F)cc1)Nc1ccc(O)cc1
true (1)
COc1cc2nccc(Oc3ccc(NC(=S)NC(=O)c4ccccc4C)cc3)c2cc1OC
false (0)
c1ccc(-c2cnc(Nc3ccc(OCCN4CCCC4)cc3)s2)cc1
false (0)
O=C(c1ccccc1)c1ccc(N2CCOCC2)cc1O
true (1)
COc1ccc2c(c1)c(C1=C(c3c[nH]c4ccccc34)C(=O)NC1=O)cn2CCCN(C)C
false (0)
